These data points were gathered from ChEMBL document CHEMBL1156597.

- Tested on: PANC-1
- MEASUREMENT_DESCRIPTION: Cytotoxicity against human PANC1 cells after 48 hrs by SRB assay
- Format: functional
- RUN_CONDITIONS: PANC-1, 48 h, read-out: LC50 (the source's name)

| ITEM_SMILES | VALUE_UNIT | CC50 |
| --- | --- | --- |
| C/C=C1\NC(=O)[C@H](Cc2ccccc2)NC(=O)[C@@H](C(C)C)NC(=O)[C@@H]([C@H](C)CC)NC(=O)[C@H](NC(=O)[C@H](NC(=O)[C@H](CCCN)NC(=O)[C@H]2CCCN2C(=O)[C@H](NC(=O)[C@@H](NC(=O)[C@@H](NC(=O)[C@H](NC(=O)CC[C@H](C)CC)C(C)C)[C@@H](C)O)C(C)C)C(C)C)[C@H](C)CC)[C@H](C)OC(=O)[C@H](C(C)C)NC1=O | nM | 1640 |
| C/C=C1\NC(=O)[C@H](Cc2ccccc2)NC(=O)[C@@H](C(C)C)NC(=O)[C@@H]([C@H](C)CC)NC(=O)[C@H](NC(=O)[C@H](NC(=O)[C@H](CCCN)NC(=O)[C@H]2Cc3ccccc3CN2C(=O)[C@H](NC(=O)[C@@H](NC(=O)[C@@H](NC(=O)[C@H](NC(=O)CC[C@@H](C)CC)C(C)C)[C@@H](C)O)C(C)C)C(C)C)[C@H](C)CC)[C@H](C)OC(=O)[C@H](C(C)C)NC1=O | nM | 1950 |
| C/C=C1\NC(=O)[C@H](Cc2ccccc2Cl)NC(=O)[C@@H](C(C)C)NC(=O)[C@@H]([C@H](C)CC)NC(=O)[C@H](NC(=O)[C@H](NC(=O)[C@H](CCCN)NC(=O)[C@H]2CCCN2C(=O)[C@H](NC(=O)[C@@H](NC(=O)[C@@H](NC(=O)[C@H](NC(=O)CCCC(C)C)C(C)C)[C@@H](C)O)C(C)C)C(C)C)[C@H](C)CC)[C@H](C)OC(=O)[C@H](C(C)C)NC1=O | nM | 1700 |

---

- Test system: LoVo
- MEASUREMENT_DESCRIPTION: Cytotoxicity against human doxorubicin resistant LoVo cells after 48 hrs by SRB assay
- Assay type: functional
Recorded GI50, one value per entry.

| ITEM_SMILES | SYSTEM_UNDER_TEST | GI50 |
| --- | --- | --- |
| C/C=C1\NC(=O)[C@@H]2Cc3ccccc3CN2C(=O)[C@@H](C(C)C)NC(=O)[C@@H]([C@H](C)CC)NC(=O)[C@H](NC(=O)[C@H](NC(=O)[C@H](CCCN)NC(=O)[C@H]2CCCN2C(=O)[C@H](NC(=O)[C@@H](NC(=O)[C@@H](NC(=O)[C@H](NC(=O)CC[C@@H](C)CC)C(C)C)[C@@H](C)O)C(C)C)C(C)C)[C@H](C)CC)[C@H](C)OC(=O)[C@H](C(C)C)NC1=O | LoVo | 718 nM |
| C/C=C1\NC(=O)[C@H](Cc2ccccc2)NC(=O)[C@@H](C(C)C)NC(=O)[C@@H]([C@H](C)CC)NC(=O)[C@H](NC(=O)[C@H](NC(=O)[C@H](CCCN)NC(=O)[C@H]2Cc3ccccc3CN2C(=O)[C@H](NC(=O)[C@@H](NC(=O)[C@@H](NC(=O)[C@H](NC(=O)CC[C@@H](C)CC)C(C)C)[C@@H](C)O)C(C)C)C(C)C)[C@H](C)CC)[C@H](C)OC(=O)[C@H](C(C)C)NC1=O | LoVo | 2290 nM |
| C/C=C1\NC(=O)[C@H](Cc2cccc(Cl)c2)NC(=O)[C@@H](C(C)C)NC(=O)[C@@H]([C@H](C)CC)NC(=O)[C@H](NC(=O)[C@H](NC(=O)[C@H](CCCN)NC(=O)[C@H]2CCCN2C(=O)[C@H](NC(=O)[C@@H](NC(=O)[C@@H](NC(=O)[C@H](NC(=O)CCCC(C)C)C(C)C)[C@@H](C)O)C(C)C)C(C)C)[C@H](C)CC)[C@H](C)OC(=O)[C@H](C(C)C)NC1=O | LoVo | 40.8 nM |
